test system: SK-HEP1; test: Antiproliferative activity against human SKHEP1 cells after 72 hrs by MTT assay; format: functional, cell-based; details: SK-HEP1, 72 h
Assignment: determine reported log10 of IC50 for the given compounds.
Response schema: value (number) is log10 of IC50 in units of nM.

Challenge: // log10 of IC50 lookup, key: COc1cc(/C=C/C(=O)N2CCC=CC2=O)cc(OC)c1OC
Response given: 4.12

Challenge: // log10 of IC50 lookup, key: O=C(/C=C/c1ccccc1)N1CCC=C(Cl)C1=O
Response given: 2.85

Challenge: // log10 of IC50 lookup, key: O=C1C(Cl)=CCCN1C(=O)C1CC1c1ccccc1 (stereo unspecified)
Response given: 4.86

Challenge: // log10 of IC50 lookup, key: O=C1C(Cl)=CCCN1C(=O)c1cnc2ccccc2c1
Response given: 3.55

Challenge: // log10 of IC50 lookup, key: O=C(/C=C/c1cccnc1)N1CCC=C(Cl)C1=O
Response given: 3.28

Challenge: // log10 of IC50 lookup, key: O=C(C#Cc1ccccc1)N1CCC=C(Cl)C1=O
Response given: 3.08

---

tested on: MDA-MB-231; experiment: Antiproliferative activity against human MDA-MB-231 cells after 72 hrs by MTT assay; type: functional, cell-based; details: MDA-MB-231, 72 h
Assignment: determine reported IC50 for the given compounds.
Write down the numeric answer in µM and omit the unit.

Challenge: Report IC50 for O=C(/C=C/c1ccccc1)N1CCC=C(Cl)C1=O tested on MDA-MB-231.
Response given: 1.67

Challenge: Report IC50 for O=C(/C=C/c1ccoc1)N1CCC=C(Cl)C1=O tested on MDA-MB-231.
Response given: 4.97

Challenge: Report IC50 for O=C(C#Cc1ccccc1)N1CCC=C(Cl)C1=O tested on MDA-MB-231.
Response given: 1.73

Challenge: Report IC50 for O=C(/C=C/c1cccnc1)N1CCC=C(Cl)C1=O tested on MDA-MB-231.
Response given: 2.97

Challenge: Report IC50 for O=C1C(Cl)=CCCN1C(=O)c1ccco1 tested on MDA-MB-231.
Response given: 19.2

Challenge: Report IC50 for O=C1C(Cl)=CCCN1C(=O)C1CC1c1ccccc1 (stereo not drawn) tested on MDA-MB-231.
Response given: 65.1

Challenge: Report IC50 for O=C(/C=C/c1ccco1)N1CCC=C(Cl)C1=O tested on MDA-MB-231.
Response given: 5.52

Challenge: Report IC50 for COc1cc(/C=C/C(=O)N2CCC=CC2=O)cc(OC)c1OC tested on MDA-MB-231.
Response given: 10.6

Challenge: Report IC50 for O=C1C(Cl)=CCCN1C(=O)c1cnc2ccccc2c1 tested on MDA-MB-231.
Response given: 8.68

Challenge: Report IC50 for O=C(/C=C/C(=O)N1CCC=C(Cl)C1=O)N1CCC=C(Cl)C1=O tested on MDA-MB-231.
Response given: 5.04

Challenge: Report IC50 for O=C1C(Cl)=CCCN1C(=O)c1cccnc1 tested on MDA-MB-231.
Response given: 4.83

---

test system: HCT-116; assay: Antiproliferative activity against human HCT116 cells after 72 hrs by MTT assay; assay type: functional, cell-based; settings: HCT-116, 72 h
experimental.endpoint: log10 of IC50 (log10 of the value in µM)
Response schema: value (number) is log10 of IC50 in units of µM.

Challenge: Report log10 of IC50 for COc1cc(/C=C/C(=O)N2CCC=CC2=O)cc(OC)c1OC tested on HCT-116.
Response given: 0.87

Challenge: Report log10 of IC50 for O=C1C(Cl)=CCCN1C(=O)c1cccnc1 tested on HCT-116.
Response given: 0.58

Challenge: Report log10 of IC50 for O=C1C(Cl)=CCCN1C(=O)c1ccco1 tested on HCT-116.
Response given: 0.77

Challenge: Report log10 of IC50 for O=C(/C=C/C(=O)N1CCC=C(Cl)C1=O)N1CCC=C(Cl)C1=O tested on HCT-116.
Response given: 0.62

Challenge: Report log10 of IC50 for O=C1C(Cl)=CCCN1C(=O)c1cnc2ccccc2c1 tested on HCT-116.
Response given: 1.01

Challenge: Report log10 of IC50 for O=C(/C=C/c1ccccc1)N1CCC=C(Cl)C1=O tested on HCT-116.
Response given: 0.22

Challenge: Report log10 of IC50 for O=C1C(Cl)=CCCN1C(=O)C1CC1c1ccccc1 (stereo not drawn) tested on HCT-116.
Response given: 1.81

Challenge: Report log10 of IC50 for O=C(/C=C/c1ccco1)N1CCC=C(Cl)C1=O tested on HCT-116.
Response given: 0.65

Challenge: Report log10 of IC50 for O=C(/C=C/c1cccnc1)N1CCC=C(Cl)C1=O tested on HCT-116.
Response given: 0.37

Challenge: Report log10 of IC50 for O=C(/C=C/c1ccoc1)N1CCC=C(Cl)C1=O tested on HCT-116.
Response given: 0.64

Challenge: Report log10 of IC50 for O=C(C#Cc1ccccc1)N1CCC=C(Cl)C1=O tested on HCT-116.
Response given: -0.04
